For reference, the following IC50 results for Cyclin-dependent kinase 6 (Homo sapiens, UniProt Q00534) were taken from various sources.

Guide cases for IC50, answers given:
- molecule: "Cc1nc2cnc(-c3nc(Nc4ccc(N5CCN(C)CC5)cn4)ncc3F)nc2n1C(C)C"
  assay result: "20 to 100 nM"
- molecule: "CCN1CCN(Cc2ccc(Nc3ncc4c(n3)N(C3CCCC3)C(=O)C(C(C)=O)O4)nc2)CC1 (centres unmarked)"
  assay result: "100 to 500 nM"
- molecule: "CCN1CCN(c2ccc(Nc3ncc(F)c(-c4ncc5nc(C)n(C(C)C)c5n4)n3)nc2)CC1"
  assay result: "100 to 500 nM"
- molecule: "CC(C)N1CCOc2c(F)cc(-c3nc(Nc4cc(N5CCCNCC5)ccn4)ncc3F)cc21"
  assay result: "> 200 nM"

Consider the record given below.
Item: CCC(C)N1C(=O)C(C2CCCC2)Sc2cnc(Nc3ccc(CN4CCNCC4)cn3)nc21 (centres unmarked) | System: Cyclin-dependent kinase 6 (Homo sapiens, UniProt Q00534) | IC50: > 500 nM
